B1: MNAT1 (parent)
chain: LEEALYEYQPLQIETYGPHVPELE

# Variants of: B1
# EXPERIMENT DESCRIPTION: protein stability index of a GFP-peptide fusion (GPS, HEK-293T) (PSI 1-6); higher = more stable;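 also: lentivirally expressed fusions sorted by FACS into six bins by GFP to DsRed ratio, PSI derived from sequencing read proportions per bin multiplied by bin number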
# EXPERIMENTAL CONDITIONS: c terminus: a fixed tail appended
QUANTITY KIND: protein stability index
Please respond with just the number, no unit label.

P18T    3.02

Q: Consider the variant E3Q and give its measured protein stability index.
Ans: 3

Q: Same lookup for P18E , please.
Ans: 2.15
